target: Bcl-2-related protein A1 (Mus musculus); test: Bfl-1 inhibitors, primary screen, biochemical, fluorescence polarization, FITC-Bid, mouse (AID 432); conditions: pH 7; 23 °C
Sequence (Q07440 whole entry): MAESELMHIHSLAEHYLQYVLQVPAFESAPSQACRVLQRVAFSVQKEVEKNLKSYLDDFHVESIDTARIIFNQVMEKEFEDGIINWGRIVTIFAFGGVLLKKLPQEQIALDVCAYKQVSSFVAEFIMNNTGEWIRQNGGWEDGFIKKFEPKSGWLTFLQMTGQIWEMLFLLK
pIC50: −log10 of the molar value.
For each of the compounds below, state its pIC50.

Enquiry: # assay system Bcl-2-related protein A1 (Mus musculus): give pIC50 of CCCN1CCC2=C(C#N)C(=N)C(C#N)(C#N)C(c3cccc(OC)c3OC)C2C1 (configuration not stated)
Return: < 4.00

Further cases:
Enquiry: # assay system Bcl-2-related protein A1 (Mus musculus): give pIC50 of OCCCc1nc2n(n1)C(c1cccs1)CC(c1ccccc1)=N2 (configuration not stated)
Return: < 4.00
